Measured koff, listed per entry for reference.
Molecular target: T1, human PDGF-BB (platelet derived growth factor B homodimer) (human, UniProt P01127)
T1 construct: Platelet derived growth factor B, human, homodimer, bought from PeproTech; the printed catalogue number may stand for 100-14B; source: bought: PeproTech, Catalog 100-148
T1 sequence (P01127 82-190): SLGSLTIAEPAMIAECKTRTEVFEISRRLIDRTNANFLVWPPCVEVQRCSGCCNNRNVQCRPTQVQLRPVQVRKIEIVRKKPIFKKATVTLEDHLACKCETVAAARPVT
Test: SPR; Biacore T200, off-rate screen; antibody captured (~70 to 100 RU) by anti-human IgG amine-coupled to a CM5 chip; human PDGF-BB injected at a single 2.5 nM for 170 s, dissociation 300 s; HBS-EP+ N (10 mM HEPES, 500 mM NaCl, 3 mM EDTA, 0.05% Tween20, pH 7.4); 25 C
Conditions: both partners purified
READOUT: koff (s⁻¹)

binder="R1-014 (antibody, V domains shown, only the variable regions are written; source: HEK293, transient, purified from conditioned medium (protein A, TMAE, HIC)) VH: EVQLLQSGGGLVKPGGSLRLSCAASGFTFSSYAMSWVRQAPGKGLEWVSYISDDGSLKYYADSVKGRFTISRDNSKNTLYLQMNSLRAEDTAVYYCARHPYWYGGQLDLWGQGTLVTVSS VL: SYELTQPPSVSVSPGQRASITCSGDSLGSYFVHWYQQKPGQSPVLVIYDDSNRPSGIPERFSGSNSGNTATLTISGTQAMDEADYYCSAFTHNSDVFGGGTKLTVL" recorded_number=0.000405
binder="R2-015 (antibody, V domains shown, as the VH of m20 (R2-001_HC) with D61N; as the VL of m20 (R2-001_LC); only the variable regions are written; source: HEK293, transient, purified from conditioned medium (protein A, TMAE, HIC)) VH: EVQLLQSGGGLVKPGGSLRLSCAASGFTFSSYAMSWVRQAPGKGLEWVSYISDDGSLKYYANSVKGRFTISRDNSKNTLYLQMNSLRAEDTAVYYCARHPYWYGGQLDLWGQGTLVTVSS VL: SYVLTQPPSVSVAPGKTARITCSGDSLGSYFVHWYQQKPGQSPVLVIYDDSKRPSGIPERFSGSNSGNTATLTISGTQAMDEADYYCSAFTHNSDVFGGGTKLTVL" recorded_number=0.000834
binder="R1-005 (antibody, V domains shown, VL of AB-001 (AB-001_LC); only the variable regions are written; source: HEK293, transient, purified from conditioned medium (protein A, TMAE, HIC)) VH: EVQLLESGGGLVQPGGSLRLSCAASGFTFSSYAMSWVRQAPGKGLEWVSYISNDGSLKYYADSVKGRFTISRDNSKNTLYLQMNSLRAEDTAVYYCARHPYWYGGQLDLWGQGTLVTVSS VL: SYELTQPPSVSVSPGQTASITCSGDSLGSYFVHWYQQKPGQSPVLVIYDDSNRPSGIPERFSGSNSGNTATLTISGTQAMDEADYYCSAFTHNSDVFGGGTKLTVL" recorded_number=0.000381
binder="R2-006 (antibody, V domains shown, as the VH of m20 (R2-001_HC); as the VL of m20 (R2-001_LC) with S52K (Kabat); only the variable regions are written; source: HEK293, transient, purified from conditioned medium (protein A, TMAE, HIC)) VH: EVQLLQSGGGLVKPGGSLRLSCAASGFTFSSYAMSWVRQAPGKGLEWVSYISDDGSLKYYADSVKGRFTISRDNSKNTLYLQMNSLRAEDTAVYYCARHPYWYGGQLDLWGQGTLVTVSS VL: SYVLTQPPSVSVAPGKTARITCSGDSLGSYFVHWYQQKPGQSPVLVIYDDKKRPSGIPERFSGSNSGNTATLTISGTQAMDEADYYCSAFTHNSDVFGGGTKLTVL" recorded_number=0.000366
binder="R2-012 (antibody, V domains shown, as the VH of m20 (R2-001_HC) with D52aK; as the VL of m20 (R2-001_LC); only the variable regions are written; source: HEK293, transient, purified from conditioned medium (protein A, TMAE, HIC)) VH: EVQLLQSGGGLVKPGGSLRLSCAASGFTFSSYAMSWVRQAPGKGLEWVSYISKDGSLKYYADSVKGRFTISRDNSKNTLYLQMNSLRAEDTAVYYCARHPYWYGGQLDLWGQGTLVTVSS VL: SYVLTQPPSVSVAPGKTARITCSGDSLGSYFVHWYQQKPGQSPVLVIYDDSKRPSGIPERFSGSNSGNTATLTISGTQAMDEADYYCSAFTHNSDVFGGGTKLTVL" recorded_number=0.000347
